// provenance: ChEMBL document CHEMBL1201861

Test system: COLO-741
procedure_details: cells
Assay type: functional, cell-based, Homo sapiens
experimental_parameters: Homo sapiens, COLO-741
Description: SANGER: Inhibition of human COLO-741 cell growth in a cell viability assay.
Each item that follows carries a reported IC50.

>  <compound_smiles>
Nc1ccn([C@@H]2O[C@H](CO)[C@@H](O)[C@@H]2O)c(=O)n1

>  <IC50>
> 2 µM

$$$$
>  <compound_smiles>
O=c1cc(-c2cccc3c2Sc2ccccc2S3)oc(N2CCOCC2)c1

>  <IC50>
> 10 µM

$$$$
>  <compound_smiles>
O=C1N=C(NCc2cccs2)S/C1=C\c1ccc2ncccc2c1

>  <IC50>
> 5 µM

$$$$
>  <compound_smiles>
CCC1=C[C@@H]2CN(C1)Cc1c([nH]c3ccccc13)[C@@](C(=O)OC)(c1cc3c(cc1OC)N(C)[C@H]1[C@@](O)(C(=O)OC)[C@H](OC(C)=O)[C@]4(CC)C=CCN5CC[C@]31[C@@H]54)C2

>  <IC50>
0.0357 µM

$$$$
>  <compound_smiles>
CC(=O)O[C@@H]1[C@@H](OC(C)=O)[C@@H](O)[C@H](Oc2c(-c3ccc(O)cc3)oc3cc(O)cc(O)c3c2=O)O[C@H]1C

>  <IC50>
> 10 µM

$$$$
>  <compound_smiles>
C=CCc1cccc(/C=N/NC(=O)CN2CCN(Cc3ccccc3)CC2)c1O

>  <IC50>
> 2.56 µM

$$$$
>  <compound_smiles>
COc1ccc(-c2ccc3c(N4CCOC[C@@H]4C)nc(N4CCOC[C@@H]4C)nc3n2)cc1CO

>  <IC50>
> 2 µM

$$$$
>  <compound_smiles>
CC(=O)O[C@@]12CO[C@@H]1C[C@H](O)[C@@]1(C)C(=O)[C@H](O)C3=C(C)[C@@H](OC(=O)[C@H](O)[C@@H](NC(=O)OC(C)(C)C)c4ccccc4)C[C@@](O)([C@@H](OC(=O)c4ccccc4)[C@H]21)C3(C)C

>  <IC50>
0.0082 µM

$$$$
